Measured values drawn from patent US20180092908A1 for this set.

- system_name: human catalytic PDI A1 a domain (PDIa) (Homo sapiens, UniProt P07237)
- Construct: made in house; host or cells: Escherichia coli BL21-Gold (DE3)
- Sequence (P07237 with tags, fused parts or gaps): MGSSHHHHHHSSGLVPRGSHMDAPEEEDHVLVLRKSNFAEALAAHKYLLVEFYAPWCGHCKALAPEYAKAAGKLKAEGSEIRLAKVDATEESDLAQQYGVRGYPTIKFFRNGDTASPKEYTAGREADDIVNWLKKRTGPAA
- assay_comment: Isothermal titration calorimetry (ITC) binding to PDIa
- protocol_conditions: PDIa, Table 5; read-out: ITC Assay KD
recorded_endpoint: Kd (nM)

{"columns": ["molecule", "system_name", "value"],
 "data": [
  ["O=C(C1CC1)N1CCN(Cn2sc3ccc(Cl)cc3c2=O)CC1", "human catalytic PDI A1 a domain (PDIa) (Homo sapiens, UniProt P07237)", 114],
  ["CC(C)(C)OC(=O)N1CCN(Cn2sc3ccccc3c2=O)CC1", "human catalytic PDI A1 a domain (PDIa) (Homo sapiens, UniProt P07237)", 123],
  ["O=c1c2ccccc2sn1CN1CCN(c2ncccn2)CC1", "human catalytic PDI A1 a domain (PDIa) (Homo sapiens, UniProt P07237)", 140],
  ["O=C(C1CC1)N1CCN(Cn2sc3ccccc3c2=O)CC1", "human catalytic PDI A1 a domain (PDIa) (Homo sapiens, UniProt P07237)", 113],
  ["CN1CCN(Cn2sc3ccccc3c2=O)CC1", "human catalytic PDI A1 a domain (PDIa) (Homo sapiens, UniProt P07237)", 91.7],
  ["COCCn1sc2ccccc2c1=O", "human catalytic PDI A1 a domain (PDIa) (Homo sapiens, UniProt P07237)", 158],
  ["O=c1c2ccccc2sn1Cn1sc2ccccc2c1=O", "human catalytic PDI A1 a domain (PDIa) (Homo sapiens, UniProt P07237)", 160],
  ["O=c1c2ccccc2sn1CN1CCCCC1", "human catalytic PDI A1 a domain (PDIa) (Homo sapiens, UniProt P07237)", 107]
]}

====

- system_name: recombinant catalytic a domain of human PDI A1 (PDIa) (Homo sapiens)
- Construct: made in house; host or cells: Escherichia coli BL21-Gold (DE3)
- assay_comment: Insulin aggregation assay (PDIa reductase activity)
- Type: biochemical
- protocol_conditions: Table 5
- From the text: In this insulin aggregation assay (Xu et al., 2012; Jasuja et al., 2012; Khan et al., 2011; Smith et al., 2004), PDIa reduced the two disulfide bonds between the α- and β-chains of insulin, causing the β-chain to aggregate and precipitate, resulting in an increase in absorbance at 650 nm. […]
recorded_endpoint: Insulin Assay (either active or inactive)

{"columns": ["compound", "value"],
 "data": [
  ["O=C(Nc1ccc(Cc2ccccc2)cc1)c1ccccc1S [LC-23]", "not active"],
  ["O=c1c2ccccc2sn1-c1cccc(F)c1 [LC-31]", "not active"],
  ["O=C(C1CC1)N1CCN(Cn2sc3c(F)cccc3c2=O)CC1 [LC-43]", "Active"],
  ["O=c1c2ccccc2sn1Cc1ccccc1 [LC-5, 2-benzylbenzo[d]isothiazol-3(2H)-one]", "Active"],
  ["O=c1c2ccccc2sn1CN1CCN(c2ncccn2)CC1 [LC-12]", "Active"],
  ["Cc1cc(C)c2c(=O)ssc2n1 [LC-50]", "Active"],
  ["CC(C)(C)OC(=O)N1CCC(COc2nsc3ccccc23)CC1 [LC-16]", "not active"],
  ["COCCn1sc2ccccc2c1=O [LC-32]", "Active"],
  ["O=c1c2ccccc2sn1CN1CCN(Cn2sc3ccccc3c2=O)CC1 [LC-9]", "Active"],
  ["O=c1c2ccccc2sn1CN1CCC(O)CC1 [LC-7]", "Active"],
  ["O=C(C1CC1)N1CCN(C(=O)n2sc3ccccc3c2=O)CC1 [LC-14]", "not active"],
  ["CC(=O)c1ccc(N2CCN(Cn3sc4ccccc4c3=O)CC2)cc1 [LC-13]", "Active"]
]}
